# SYSTEM: CDK2/Cyclin E1 (Homo sapiens, UniProt P24941)
# Construct: purchased 14-475
# ASSAY NOTES: Caliper Assay (LabChip EZ Reader mobility shift assay), inhibition of CDK2/Cyclin E1 activity
# Assay type: biochemical
# EXPERIMENTAL CONDITIONS: 2.5 nM CDK2/Cyclin E1(14-475), 100 μM ATP, 30 min preincubation; read-out: Caliper Assay (CDK2/CCNE1): IC50
pIC50: −log10 of the molar value.
Provide the recorded pIC50 for the entries that follow.

Problem: Could you tell me which pIC50 is on file for C[C@H](NC(=O)c1coc(C2CN(C(=O)c3cnn(Cc4ccccc4)c3)CC23CN(C(=O)[C@H]2CC2(C)C)C3)n1)C1CCCCC1 (stereo partly shown) ?
Solution: 6.00 to 7.00

Problem: Look at this compound and give its reported pIC50. CC1(C)C[C@@H]1C(=O)N1CC2(CN(C(=O)c3cnccn3)CC2c2nnc(C(F)(F)c3ccc(Cl)c(Cl)c3)o2)C1 (single isomer, unassigned) [I-45 2nd]
Solution: 6.00 to 7.00

Problem: Record request: pIC50 value, item CC(C)(C(=O)N1CC2(C1)CN(c1ncnc3ncsc13)CC2c1nnc(C(F)(F)c2ccc(Cl)c(Cl)c2)o1)C(F)F (stereo not shown)
Solution: < 5.00

Problem: What value of pIC50 has been reported for the following compound? CC(c1nc(C2CN(C(=O)c3cncs3)CC23CN(C(=O)[C@H]2CC2(C)C)C3)no1)n1cc(C2CCCC2)cn1 (stereo partly shown)
Solution: 7.00 to 8.00

Problem: Which pIC50 value is on record for FC(F)(c1ccc(Cl)c(Cl)c1)c1nnc(C2CN(c3ncnc4ncsc34)CC23CN(c2ncccn2)C3)o1 (stereo not shown) ?
Solution: < 5.00

Problem: Would you kindly share the measured pIC50 for CC1(C)OC1C(=O)N1CC2(CN(C(=O)c3cncs3)CC2c2nnc(C(F)(F)c3ccc(Cl)c(Cl)c3)o2)C1 (stereo not shown) ?
Solution: < 5.00

Problem: I would be grateful if you could share the reported pIC50 for COc1cc(C(=O)N2CC(c3nnc(C(F)(F)c4ccc(Cl)c(Cl)c4)o3)C3(C2)CN(C(=O)[C@H]2CC2(F)F)C3)[nH]n1 (stereo partly shown) .
Solution: < 5.00

Problem: What pIC50 value was documented for this compound, CC(C)(c1ccc(Cl)c(Cl)c1)c1nnc(C2CN(C(=O)c3cncs3)CC23CN(C(=O)[C@H]2CC2(C)C)C3)o1 (stereo partly shown) ?
Solution: 6.00 to 7.00

Problem: Using the record for CC1(C)C[C@@H]1C(=O)N1CC2(CN(C(=O)c3cncs3)CC2c2nnc(Cc3cccc4c3OCCO4)o2)C1 (stereo partly shown) , report its pIC50.
Solution: 5.00 to 6.00

Problem: Can you share its pIC50? I mean this compound: O=C(c1onc2ccccc12)N1CC(c2nnc(C(F)(F)c3ccc(Cl)c(Cl)c3)o2)C2(C1)CN(C(=O)[C@H]1CC1(F)F)C2 (single isomer, unassigned) [I-151 2nd]
Solution: 5.00 to 6.00

Problem: What measured pIC50 goes with CC(c1nc(C2CN(C(=O)c3cnn(Cc4ccc(C(=O)O)nc4)c3)CC23CN(C(=O)[C@H]2CC2(C)C)C3)no1)n1ccc(C2CCCC2)n1 (stereo partly shown) ?
Solution: 6.00 to 7.00

Problem: Requested field: pIC50. Item: O=C(c1cncs1)N1CC(c2nnc(C(F)(F)c3ccc(Cl)c(Cl)c3)o2)C2(CC(C(=O)N3CCC3)C2)C1 (stereo not shown)
Solution: < 5.00

Problem: Suppose we examine the compound CC1(C)C[C@@H]1C(=O)N1CC2(CN(C(=O)c3cnn(Cc4ccccc4)c3)CC2c2nnc(Cc3cncnc3)o2)C1 (stereo partly shown) ; what pIC50 value has been reported?
Solution: 5.00 to 6.00
